Hi there, I'd appreciate the recorded Inhibition for every entry that follows.
- Tested on: Plasmodium falciparum
- Protocol Summary: GSK_TCMDC: Inhibition of Plasmodium falciparum Dd2 in whole red blood cells, using parasite LDH activity as an index of growth. Test compounds present at 2uM
- Type: functional
Number in %, nothing else.

Value of measured Inhibition for the entry `COc1ccc(OC)c(NC(=O)CSc2nc(-c3ccccc3Cl)ns2)c1` : 32

Value of measured Inhibition for the entry NC1=Nc2ccc(Cl)cc2C1(O)c1ccccc1 (configuration not stated) : 51

Value of measured Inhibition for the entry `CC(C)(C)C(=O)Nc1ccc(N2CCN(C(c3ccccc3)c3ccccc3)CC2)c(Cl)c1` : 94

Value of measured Inhibition for the entry `CCc1cc(NC2CCN(C)CC2)nc(Nc2cccc(OC)c2)n1` : 37

Value of measured Inhibition for the entry `Cc1cccc2nc(-c3ccc(-c4cccc(CNC(C)C)c4)s3)[nH]c12.O=C(O)C(F)(F)F` : 97

Value of measured Inhibition for the entry `CC(=O)O.Nc1nc(N)c2cc3ccc(OCc4ccccc4)cc3nc2n1` : 75

Value of measured Inhibition for the entry `Cc1[nH]c(C)c(-c2ccc(-c3ccc(OC(F)(F)F)cc3)nc2)c(=O)c1Br` : 97

Value of measured Inhibition for the entry COc1ccc(C(C)Nc2nc(N)c3cc(OC)c(OC)cc3n2)cc1.Cl (configuration not stated) : 28

Value of measured Inhibition for the entry COc1ccc2nccc(N(C)CC3(O)CCC(NCc4cc5c(cn4)OCCO5)CC3)c2n1.Cl (configuration not stated) : 14

Value of measured Inhibition for the entry `COc1ccccc1N(C)CCNc1cc(C)nc(Nc2ccc(C)cc2)n1` : 25

Value of measured Inhibition for the entry S=C(NN=Cc1ccccn1)NC1CC2C=CC1C2 (configuration not stated) : 96

Value of measured Inhibition for the entry CN1CC(c2ccccc2)c2cc(O)c(CN3CCCCC3)cc2CC1Cc1ccccc1.Cl (configuration not stated) : 99

Value of measured Inhibition for the entry `FC(F)(F)CNc1nc(Nc2ccc3ncccc3c2)nc2[nH]ccc12.O=C(O)C(F)(F)F` : 83

Value of measured Inhibition for the entry CC1(CCCCN2CCC(Cc3ccccc3)CC2)C(=O)Nc2ccccc21.Cl (configuration not stated) : 28

Value of measured Inhibition for the entry `Cc1cc(C2CCN(CCCCNC(=O)c3ccc(-c4ccc(C(F)(F)F)cc4)cc3)CC2)c(C)cc1OCC#N` : 58

Value of measured Inhibition for the entry `CCCC1(NC[C@@H](O)[C@H](Cc2ccccc2)NC(=O)c2cc(NCC)cc(N3CCCCS3(=O)=O)c2)CC1.Cl` : 98

Value of measured Inhibition for the entry `Cc1cc(-c2ccc(CNCc3ccc(F)cc3)cc2)ccc1S(=O)(=O)NCCN1CCCC1.O=C(O)C(F)(F)F` : 41
